Parameter: TGI. Scope: all listed entries.
Tested on: MDA-MB-231 breast
assayNotes: NCI tumour cell line growth inhibition, 48 h
assayEndpoint: TGI

{"compound": "c1ccc(COc2ccc(Nc3ncnc4ccc(-c5ccco5)cc34)cc2)cc1", "valueMeasured": "13.7 µM"}
{"compound": "O=C(Nc1ccc(Cl)cc1)C(=O)C1=C(O)c2ccccc2OC1", "valueMeasured": "> 100 µM"}
{"compound": "CC(=O)N(CCc1ccccc1)C(C)(C#N)c1ccccc1 (stereo not drawn)", "valueMeasured": "> 100 µM"}
{"compound": "Cc1ccc(CCCC(=O)O)cc1C", "valueMeasured": "> 100 µM"}
{"compound": "COc1ccc(C2=NN(c3ccc(S(N)(=O)=O)cc3)C(c3ccc(Cl)cc3)C2)c(O)c1 (stereo not drawn)", "valueMeasured": "27.4 µM"}
{"compound": "O=C1NC(c2ccccc2)C1N(Cc1ccccc1)Cc1ccccc1 (stereo not drawn)", "valueMeasured": "> 100 µM"}
{"compound": "CC1=NN(c2ccccc2Cl)C2(C1)SCC(=O)N2c1nc2ccccc2s1 (stereo not drawn)", "valueMeasured": "> 100 µM"}
{"compound": "Cn1cc(-c2csc(-c3cn(C)c4ncccc34)n2)c2ccccc21", "valueMeasured": "37.8 µM"}
{"compound": "CC(C)Cn1cnnc1NS(=O)(=O)c1cc(C(=O)NN)c(Cl)cc1S", "valueMeasured": "> 10 µM"}
{"compound": "COc1cccc(C2C3=C(COC3=O)N(CCO)c3cc4c(cc32)CCC4)c1 (stereo not drawn)", "valueMeasured": "1.07 µM"}
{"compound": "O=C(N/N=C1\\CCc2ccccc21)N/N=C1\\CCc2ccccc21", "valueMeasured": "29.4 µM"}
{"compound": "O=C1c2ccccc2-c2ccc(N(Cc3ccc(Br)cc3)Cc3ccc(Br)cc3)cc21", "valueMeasured": "> 100 µM"}
{"compound": "Brc1ccc(C2(N3CCCCC3)CCCCC2)s1", "valueMeasured": "> 100 µM"}
{"compound": "CCN(CC)c1ccc(/C=C/C2=[N+](C)c3ccccc3C2(C)C)cc1", "valueMeasured": "6.48 µM"}
{"compound": "Cc1ccc2c(c1)C(=O)c1ccc(C)nc1C2=O", "valueMeasured": "> 100 µM"}
{"compound": "CC1(C)CCC(CN2CCN(c3ccc(C(=O)NS(=O)(=O)c4ccc(NCC5CCOCC5)c([N+](=O)[O-])c4)c(Oc4cnc5[nH]ccc5c4)c3)CC2)=C(c2ccc(Cl)cc2)C1", "valueMeasured": "4 µM"}
{"compound": "COc1ccc(N=C/C=C/C(=C/COC(C)=O)OC(C)=O)cc1", "valueMeasured": "65.3 µM"}
{"compound": "CCOC(=O)CC(=O)Nc1c(C(=O)OCC)sc2nc(SC)nc(Nc3ccc(OC)c(OC)c3)c12", "valueMeasured": "> 100 µM"}
{"compound": "COc1ccc2c(c1)CC[C@@H]1C2CC[C@]2(C)C(=O)N(C)C(=O)CC12 (stereo partly drawn)", "valueMeasured": "> 100 µM"}
{"compound": "CC1C2CC(CC2=O)C1(C)C (stereo not drawn)", "valueMeasured": "> 100 µM"}
{"compound": "C#CCSc1nnnn1-c1ccc(Br)c(C)c1", "valueMeasured": "> 100 µM"}
{"compound": "COc1ccc2c(c1)OCC1Cc3cccc(OC)c3OC21 (stereo not drawn)", "valueMeasured": "> 100 µM"}
{"compound": "N#Cc1c(-c2ccccc2)cc(Nc2ccc(F)cc2)n2c1nc1ccccc12", "valueMeasured": "65.2 µM"}
